Below: a set of entries, each annotated with reported IC50.
- system.tested: SOS1/KRAS-G12D (Homo sapiens (Human))
- protocol.description: SOS1/KRAS-G12D binding inhibition assay (AlphaScreen)
- run.conditions: GST-SOS1 and 6*His KRAS-G12D, read-out: KrasG12D/SOS1 binding IC50

- compound: "CO[C@@]1(c2ccc3nccc(N[C@H](C)c4cccc(C(F)F)c4F)c3c2)CCN(C(=O)C2CC2)C1 [Compound 95]"
  IC50: "≤ 10 nM"
- compound: "COC(=O)N1CC[C@@](OC)(c2ccc3nccc(N[C@H](C)c4cccc(C(F)F)c4F)c3c2)C1 [Compound 90]"
  IC50: "10 to 100 nM"
- compound: "CC(=O)N1CCN(c2ccc3nccc(N[C@H](C)c4cccc(C(F)(F)F)c4C)c3c2)CC1 [Compound 27]"
  IC50: "10 to 100 nM"
- compound: "CC(C)C(=O)N1CCN(c2ccc3nccc(N[C@H](C)c4cccc(C(F)F)c4F)c3c2)CC1 [Compound 17]"
  IC50: "≤ 10 nM"
- compound: "COc1cc2nccc(N[C@H](C)c3cccc(C(F)(F)F)c3C)c2cc1N1CCN(C(=O)C2COC2)CC1 [Compound 47]"
  IC50: "10 to 100 nM"

Lab book: IC50 of COC1(c2ccc3nccc(N[C@H](C)c4cccc(C(F)(F)F)c4C)c3c2)CCN(C(=O)C(C)C)CC1 [Compound 80] noted as 10 to 100 nM

Lab book: IC50 of Cc1c([C@@H](C)Nc2ccnc3ccc(N4CCn5c(C)nnc5C4)cc23)cccc1C(F)(F)F [Compound 45] noted as 10 to 100 nM

====

Below: a set of entries, each annotated with reported pIC50.
- System: Phospho-ERK1/2 in DLD1 cells
- protocol.description: Phospho-ERK1/2 expression inhibition in DLD1 cells
- Assay type: cell-based
- run.conditions: Homo sapiens, DLD-1, 4 hours, read-out: DLD1 pERK IC50
pIC50: −log10 of the molar value.

Below: 3 compounds and their reported pIC50.
- compound: "CC(=O)N1CCC(F)(c2ccc3nccc(NC(C)c4cccc(C(F)F)c4F)c3c2)CC1 (stereo not shown) [Compound 84]"
  system.tested: "Phospho-ERK1/2 in DLD1 cells"
  pIC50: "6.30 to 6.82"
- compound: "COC1(c2ccc3nccc(N[C@H](C)c4cccc(C(F)(F)F)c4C)c3c2)CCN(C(=O)CC#N)CC1 [Compound 77]"
  system.tested: "Phospho-ERK1/2 in DLD1 cells"
  pIC50: "6.30 to 6.82"
- compound: "Cc1c([C@@H](C)Nc2ccnc3ccc(N4CCOCC4)cc23)cccc1C(F)(F)F [Compound 37]"
  system.tested: "Phospho-ERK1/2 in DLD1 cells"
  pIC50: "6.30 to 6.82"

Would you kindly look at the next entry?
Lab book: pIC50 of Cc1c([C@@H](C)Nc2ccnc3ccc(N4CCN(c5nccs5)CC4)cc23)cccc1C(F)(F)F [Compound 34] noted as < 6.30

====

- system.tested: SOS1/KRAS-G12D (Homo sapiens (Human), UniProt Q07889)
- Sequence (Q07889 564-1049 limits assumed): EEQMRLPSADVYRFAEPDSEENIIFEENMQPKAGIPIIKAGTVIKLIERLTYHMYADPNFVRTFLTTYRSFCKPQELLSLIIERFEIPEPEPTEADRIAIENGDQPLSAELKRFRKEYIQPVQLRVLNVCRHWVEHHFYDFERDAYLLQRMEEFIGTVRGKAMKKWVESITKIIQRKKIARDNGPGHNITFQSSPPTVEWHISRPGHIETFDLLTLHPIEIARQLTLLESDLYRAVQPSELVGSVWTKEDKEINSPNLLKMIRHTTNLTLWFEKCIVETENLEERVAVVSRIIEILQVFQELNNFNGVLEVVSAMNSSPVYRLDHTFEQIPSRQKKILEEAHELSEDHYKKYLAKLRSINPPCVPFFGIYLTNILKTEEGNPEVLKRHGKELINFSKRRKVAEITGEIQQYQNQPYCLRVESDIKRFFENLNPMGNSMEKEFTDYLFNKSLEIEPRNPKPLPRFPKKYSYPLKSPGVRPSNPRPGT
- protocol.description: SOS1/KRAS-G12D binding inhibition assay (AlphaScreen)
- run.conditions: GST-SOS1 and 6*His KRAS-G12D, read-out: KrasG12D/SOS1 binding IC50
Below: a set of entries, each annotated with reported IC50.

- substance.smiles: "CC(=O)N[C@@H]1CCN(c2ccc3nccc(N[C@H](C)c4cccc(C(F)F)c4F)c3c2)C1"
  assay.result: "10 to 100 nM"
- substance.smiles: "COc1cc2nccc(N[C@H](C)c3cccc(C(F)F)c3F)c2cc1C1(OC)CCN(C(C)=O)CC1"
  assay.result: "≤ 10 nM"
- substance.smiles: "Cc1c([C@@H](C)Nc2ccnc3ccc(N4CC5CCC(C4)N5)cc23)cccc1C(F)(F)F"
  assay.result: "10 to 100 nM"
- substance.smiles: "Cc1c([C@@H](C)Nc2ccnc3ccc(N4CC[C@@H](N)C4)cc23)cccc1C(F)(F)F"
  assay.result: "> 100 nM"
- substance.smiles: "Cc1c([C@@H](C)Nc2ccnc3ccc(N4CCNCC4)cc23)cccc1C(F)(F)F"
  assay.result: "10 to 100 nM"
- substance.smiles: "Cc1c([C@@H](C)Nc2ccnc3ccc(N4CCN(CC(F)(F)F)CC4)cc23)cccc1C(F)(F)F"
  assay.result: "> 100 nM"

Fill in: SOS1/KRAS-G12D (Homo sapiens (Human), UniProt Q07889) IC50 for `Cc1c([C@@H](C)Nc2ccnc3ccc(N4CCCNCC4)cc23)cccc1C(F)(F)F` = 10 to 100 nM

Fill in: SOS1/KRAS-G12D (Homo sapiens (Human), UniProt Q07889) IC50 for `CC(=O)N1C2CC1CN(c1ccc3nccc(N[C@H](C)c4cccc(C(F)(F)F)c4C)c3c1)C2` = 10 to 100 nM

====

- system.tested: SOS1/KRAS-G12D (Homo sapiens (Human), UniProt Q07889)
- protocol.description: SOS1/KRAS-G12D binding inhibition assay (AlphaScreen)
- run.conditions: GST-SOS1 and 6*His KRAS-G12D, read-out: KrasG12D/SOS1 binding IC50
pIC50: −log10 of the molar value.
measured.attribute: pIC50

Below: 6 molecules and their reported pIC50.
- molecule: "CC(=O)N1CCC(F)(c2ccc3nccc(N[C@H](C)c4cccc(C(F)F)c4F)c3c2)CC1 [Compound 41]"
  pIC50: "≥ 8.00"
- molecule: "CC(C)C(=O)N1CCC(F)(c2ccc3nccc(N[C@H](C)c4cccc(C(F)F)c4F)c3c2)CC1 [Compound 81]"
  pIC50: "≥ 8.00"
- molecule: "C[C@@H](Nc1ccnc2ccc(N3CCN(C(=O)[C@@H]4CCOC4)CC3)cc12)c1cccc(C(F)F)c1F [Compound 15]"
  pIC50: "≥ 8.00"
- molecule: "Cc1c([C@@H](C)Nc2ccnc3ccc(C4(F)CCN(C(=O)C(C)C)CC4)cc23)cccc1C(F)(F)F [Compound 82]"
  pIC50: "< 7.00"
- molecule: "CC(=O)N1CCC(F)(c2ccc3nccc(NC(C)c4cccc(C(F)F)c4F)c3c2)CC1 (stereo not shown) [Compound 84]"
  pIC50: "≥ 8.00"
- molecule: "Cc1c([C@@H](C)Nc2c(C#N)cnc3ccc(N4CCN(C(=O)C5CCOC5)CC4)cc23)cccc1C(F)(F)F (stereo partly shown) [Compound 3]"
  pIC50: "< 7.00"

Would you kindly look at the next entry?
Lab book: pIC50 of Cc1c([C@@H](C)Nc2ccnc3ccc(N4C[C@@H]5C[C@H]4CO5)cc23)cccc1C(F)(F)F [Compound 22] noted as < 7.00

====

- Test system: Phospho-ERK1/2 in DLD1 cells
- protocol.description: Phospho-ERK1/2 expression inhibition in DLD1 cells
- Assay type: cell-based
- run.conditions: Homo sapiens, DLD-1, 4 hours, read-out: DLD1 pERK IC50
Below: a set of entries, each annotated with reported IC50.

Below: 5 compounds and their reported IC50.
- compound: "COC1(c2ccc3nccc(N[C@H](C)c4cccc(C(F)F)c4F)c3c2)CCN(C(C)=O)CC1"
  system.tested: "Phospho-ERK1/2 in DLD1 cells"
  IC50: "≤ 150 nM"
- compound: "Cc1c([C@@H](C)Nc2ccnc3ccc(N4CCN(C(=O)C5CCCO5)CC4)cc23)cccc1C(F)(F)F (stereo partly shown)"
  system.tested: "Phospho-ERK1/2 in DLD1 cells"
  IC50: "> 500 nM"
- compound: "COc1cc2nccc(N[C@H](C)c3cccc(C(F)(F)F)c3C)c2cc1N1CCNCC1"
  system.tested: "Phospho-ERK1/2 in DLD1 cells"
  IC50: "> 500 nM"
- compound: "Cc1c([C@@H](C)Nc2ccnc3ccc(N4CCC(N5CCC5)CC4)cc23)cccc1C(F)(F)F"
  system.tested: "Phospho-ERK1/2 in DLD1 cells"
  IC50: "> 500 nM"
- compound: "COC(=O)N1CCC(OC)(c2ccc3nccc(N[C@H](C)c4cccc(C(F)F)c4F)c3c2)CC1"
  system.tested: "Phospho-ERK1/2 in DLD1 cells"
  IC50: "150 to 500 nM"

Lab book: IC50 of `CC(=O)N1CCN(c2ccc3nccc(N[C@H](C)c4cccc(C(F)(F)F)c4C)c3c2)CC1(C)C` noted as > 500 nM

Lab book: IC50 of `CC(=O)N[C@H]1CCN(c2ccc3nccc(N[C@H](C)c4cccc(C(F)(F)F)c4C)c3c2)C1` noted as > 500 nM

====

Below: a set of entries, each annotated with reported pIC50.
- System: Phospho-ERK1/2 in DLD1 cells
- protocol.description: Phospho-ERK1/2 expression inhibition in DLD1 cells
- Format: cell-based
- run.conditions: Homo sapiens, DLD-1, 4 hours, read-out: DLD1 pERK IC50
pIC50: −log10 of the molar value.

Below: 5 molecules and their reported pIC50.
- molecule: "CNC(=O)N1CC[C@](OC)(c2ccc3nccc(N[C@H](C)c4cccc(C(F)F)c4F)c3c2)C1"
  measured.attribute: "pIC50"
  assay.result: "≥ 6.82"
- molecule: "Cc1cc(N[C@H](C)c2cccc(C(F)(F)F)c2C)c2cc(N3CCNCC3)ccc2n1"
  measured.attribute: "pIC50"
  assay.result: "< 6.30"
- molecule: "CO[C@]1(c2ccc3nccc(N[C@H](C)c4cccc(C(F)F)c4F)c3c2)CCN(C(C)=O)C1"
  measured.attribute: "pIC50"
  assay.result: "≥ 6.82"
- molecule: "CC(=O)N1CCC(O)(c2ccc3nccc(N[C@H](C)c4cccc(C(F)F)c4F)c3c2)C1 (stereo partly drawn)"
  measured.attribute: "pIC50"
  assay.result: "6.30 to 6.82"
- molecule: "Cc1c([C@@H](C)Nc2ccnc3ccc(N4CCNC5(CC5)C4)cc23)cccc1C(F)(F)F"
  measured.attribute: "pIC50"
  assay.result: "< 6.30"

Lab book: pIC50 of `CC(=O)N1C[C@@H](C)N(c2ccc3nccc(N[C@H](C)c4cccc(C(F)(F)F)c4C)c3c2)C[C@@H]1C` noted as < 6.30

Lab book: pIC50 of `CO[C@]1(c2ccc3nccc(N[C@H](C)c4cccc(C(F)F)c4F)c3c2)CCN(C(=O)C2CC2)C1` noted as 6.30 to 6.82

Lab book: pIC50 of `CC(=O)N1CCC(F)(c2ccc3nccc(N[C@H](C)c4cccc(C(F)F)c4F)c3c2)CC1` noted as 6.30 to 6.82

Each recorded value in this set is attributed to patent US20240208909A1.
